Where do these numbers come from? They come from ChEMBL document CHEMBL3390847.

target: Tubulin; assay: Inhibition of tubulin polymerization (unknown origin) after 30 mins; format: protein-complex assay, Homo sapiens
MEASURED_METRIC: IC50

Before answering, review these 3 worked examples.
COc1cc(/C=C\c2cccc(B(O)O)c2)cc(OC)c1 | > 100 µM
COc1cc(/C=C\c2cccc(B(O)O)c2)cc(OC)c1OC | > 100 µM
COc1cc(/C=C\c2ccc(B(O)O)cc2)cc(OC)c1OC | > 100 µM

Read the next record carefully.
Req: Requested read-out IC50, target or system Tubulin, entry COc1ccc(/C=C\c2cc(OC)c(OC)c(OC)c2)cc1C(=O)O
Resp: > 100 µM
